Values compiled from patent US20240317735A1.

experiment: Single dose pharmacokinetics (PK) study in male Wister-Han rats; type: in vivo, rat; conditions: dose normalized AUC0-last PO 10 mg/kg vs IV 2 mg/kg
Each entry below carries its recorded F.
Give a bare numeral; the unit % is implied.

Worked cases, F given:
{"columns": ["smiles_string", "endpoint_label", "endpoint_value"],
 "data": [
  ["CO[C@@H]1CN(c2ccc3c(c2)[C@@H](C)CN(c2ccnc4c2cnn4C)C3)C[C@H]1N", "F", 60],
  ["CO[C@@H]1CN(c2ccc3c(c2)[C@@H](C)CN(c2cc(C)nc4c2cnn4C)C3)C[C@H]1N", "F", 73],
  ["C[C@H]1CN(c2ccnc3c2cnn3C)Cc2ccc(OC[C@@H]3CNCCN3)cc21", "F", 32]
]}

q: Can you share its F? I mean this molecule: C[C@H]1CN(c2ccnc3c2cnn3C)Cc2ccc(N3CCNCC3)cc21
a: 113

q: Can you share its F? I mean this molecule: CO[C@@H]1CN(c2ccc3c(n2)[C@@H](C)CN(c2cc(C)nc4c2cnn4C)C3)C[C@H]1N
a: 98

* * *

target: hERG channel (Homo sapiens, UniProt Q12809); construct: expressed in transfected cells; host or cells: CHO (CHOhERG); test: hERG channel inhibition assay (patch-clamp, CHOhERG cells); assay type: cell-based; settings: safety ratio, hERG IC20 over HEK/hTLR7 IC50
Sequence (Q12809 whole entry): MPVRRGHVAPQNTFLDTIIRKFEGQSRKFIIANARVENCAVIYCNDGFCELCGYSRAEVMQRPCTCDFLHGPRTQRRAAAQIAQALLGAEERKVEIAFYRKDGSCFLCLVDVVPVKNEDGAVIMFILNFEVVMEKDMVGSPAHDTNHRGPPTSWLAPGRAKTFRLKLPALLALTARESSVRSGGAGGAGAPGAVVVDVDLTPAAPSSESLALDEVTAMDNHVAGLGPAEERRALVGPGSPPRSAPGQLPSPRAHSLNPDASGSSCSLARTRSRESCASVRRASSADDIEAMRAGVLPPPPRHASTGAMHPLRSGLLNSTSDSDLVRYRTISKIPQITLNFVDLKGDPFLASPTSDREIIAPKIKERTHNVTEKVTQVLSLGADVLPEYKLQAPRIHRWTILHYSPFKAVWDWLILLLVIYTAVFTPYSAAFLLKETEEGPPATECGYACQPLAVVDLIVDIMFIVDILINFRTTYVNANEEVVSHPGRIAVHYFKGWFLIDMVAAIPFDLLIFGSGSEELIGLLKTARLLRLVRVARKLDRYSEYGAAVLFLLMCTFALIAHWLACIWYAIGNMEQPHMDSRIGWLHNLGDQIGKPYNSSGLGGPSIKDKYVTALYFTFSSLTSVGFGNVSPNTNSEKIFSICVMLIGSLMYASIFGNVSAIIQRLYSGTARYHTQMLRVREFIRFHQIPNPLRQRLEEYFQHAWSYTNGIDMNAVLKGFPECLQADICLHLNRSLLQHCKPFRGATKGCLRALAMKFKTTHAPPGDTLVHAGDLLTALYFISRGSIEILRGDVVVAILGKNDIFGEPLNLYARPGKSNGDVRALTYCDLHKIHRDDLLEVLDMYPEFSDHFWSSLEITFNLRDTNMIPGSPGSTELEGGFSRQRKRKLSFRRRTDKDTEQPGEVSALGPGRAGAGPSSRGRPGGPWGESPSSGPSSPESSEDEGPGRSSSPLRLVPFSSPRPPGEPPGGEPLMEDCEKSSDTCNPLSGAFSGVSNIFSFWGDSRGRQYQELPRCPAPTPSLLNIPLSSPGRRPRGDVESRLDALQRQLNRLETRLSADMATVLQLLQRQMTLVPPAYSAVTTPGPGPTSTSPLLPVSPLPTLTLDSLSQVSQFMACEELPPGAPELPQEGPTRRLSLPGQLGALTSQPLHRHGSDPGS
endpoint_label: hERG IC20/TLR7 IC50

Worked cases, hERG IC20/TLR7 IC50 given:
{"columns": ["compound", "target_entity", "hERG IC20/TLR7 IC50"],
 "data": [
  ["C[C@H]1CN(c2ccnc3c2cnn3C)Cc2ccc(OC[C@@H]3CNCCN3C)cc21", "hERG channel (Homo sapiens, UniProt Q12809)", ">666.7"],
  ["Cc1cc(N2Cc3cnc(N4CC[C@@H](N)[C@H](F)C4)cc3[C@@H](C)C2)c2cnn(C)c2n1", "hERG channel (Homo sapiens, UniProt Q12809)", ">833.3"],
  ["Cc1cc(N2Cc3cnc(O[C@@H]4C[C@H]5CNCCN5C4)cc3[C@@H](C)C2)c2cnn(C)c2n1", "hERG channel (Homo sapiens, UniProt Q12809)", ">526.3"],
  ["C[C@H]1CN(c2ccnc3c2cnn3C)Cc2ccc(N3CC4(CNCCO4)C3)cc21", "hERG channel (Homo sapiens, UniProt Q12809)", ">1428.6"],
  ["Cc1cc(N2Cc3ccc(OC[C@H]4CNCCN4)cc3[C@@H](C)C2)c2cnn(C)c2n1", "hERG channel (Homo sapiens, UniProt Q12809)", 175.7],
  ["C[C@H]1CN(c2ccnc3c2cnn3C)Cc2ccc(N3C[C@@]4(CCNC4)CC3=O)cc21 (single isomer, unassigned)", "hERG channel (Homo sapiens, UniProt Q12809)", ">555.6"]
]}

As a next step, examine the compound that follows.
q: Can you share its hERG IC20/TLR7 IC50? I mean this compound: CO[C@H]1CN(c2cc3c(cn2)CN(c2cc(C)nc4c2cnn4C)C[C@@H]3C)CC[C@@H]1N
a: 1725.0

* * *

Test system: embryonic stem cells (D3) and 3T3 fibroblasts
Experiment: mouse Embryonic Stem Cell Test (mEST)
Type: cell-based
Settings: <0.5 negative, >0.6 positive, 0.5-0.6 borderline
Description: The in vitro mouse Embryonic Stem Cell Test (mEST) assay is an implemented routine assay at Roche. […] The third endpoint is the inhibition of differentiation of ES cells into myocards which are cardiac muscle cells after 10 days of treatment. The beating of this cells is evaluated by microscopy. […]
Each entry below carries its recorded Predictive scores D12_3.

Worked cases, Predictive scores D12_3 given:
{"columns": ["compound", "endpoint_label", "endpoint_value"],
 "data": [
  ["C[C@H]1CN(c2ccnc3c2cnn3C)Cc2ccc(OC[C@H]3CNCCN3)cc21 [Example 18]", "Predictive scores D12_3", 0.11],
  ["CO[C@@H]1CN(c2ccc3c(n2)[C@@H](C)CN(c2cc(C)nc4c2cnn4C)C3)C[C@H]1N [Example 63]", "Predictive scores D12_3", 0.43],
  ["CO[C@@H]1CN(c2ccc3c(c2)[C@@H](C)CN(c2ccnc4c2cnn4C)C3)C[C@H]1N [Example 20]", "Predictive scores D12_3", 0.49]
]}

q: Can you share its Predictive scores D12_3? I mean this compound: C[C@H]1CN(c2ccnc3c2cnn3C)Cc2ccc(OC[C@@H]3CNCCN3)cc21 [Example 19]
a: 0.05
